System: HCV proteins in Rep5.1 cells (replicon cell line)
Assay: Inhibitory activity of HCV: cell-based ELISA in replicon cell line Rep5.1 (decrease of HCV proteins)
Parameters: species or system hepatitis C virus
Details: Hepatitis C virus, 72 h, Rep5.1 cells, 72 hours with drug, decrease of HCV proteins measured by HCV antibody; Table 1; read-out: Level (IC50 values classified)
Experimental: In order to, screen and evaluate the anti-HCV therapeutic agents in cell level, the following experiments are carried out using a replicon cell line, Rep5.1 [Lohmann, et al., Replication of subgenomic hepatitis C virus RNAs in a hepatoma cell line. […] Rep5.1 cells, the replicon cell line, are cultured in DMEM-10 containing 500 μg/ml of G418. […] After 72 hours, the remaining cells are fixed by methanol/acetone (50/50, v/v), and the decrease of HCV proteins is measured by using HCV antibody. […]
pIC50: −log10 of the molar value.
Kindly state pIC50 for each of the entries shown.

Look over these answered cases.
{"compound": "CC1=C(C(=O)OCc2ccc(F)cc2Cl)C(CF)NC(=S)N1 (stereo not shown)", "reportedMeasurement": "> 6.00"}
{"compound": "COc1ccc(COC(=O)C2=C(C)NC(=S)NC2)cc1Br", "reportedMeasurement": "> 6.00"}

Batch lookup, pIC50 per entry.
1. CCOc1ccccc1CCOC(=O)C1=C(C)NC(=S)NC1CO (stereo not shown)
2. CC1=C(C(=O)OCC=Cc2ccccc2)CNC(=S)N1
3. CC1=C(C(=O)OCc2ccsc2)C(CF)NC(=S)N1 (stereo not shown)
4. COc1ccc(COC(=O)C2=C(C)NC(=S)NC2)cc1C
5. COc1cc(COC(=O)C2=C(C)NC(=S)NC2)cc(Br)c1OC

Result ::
["5.00 to 6.00", "> 6.00", "4.70 to 5.00", "5.00 to 6.00", "5.00 to 6.00"]

Batch lookup, pIC50 per entry.
1. CC1=C(C(=O)OCCCc2ccccc2)C(CF)NC(=S)N1 (stereo not shown)
2. CC1=C(C(=O)OCCc2ccccc2[N+](=O)[O-])C(CF)NC(=S)N1 (stereo not shown)
3. CC1=C(C(=O)OCCCc2ccc(F)cc2)C(CF)NC(=S)N1 (stereo not shown)

Result ::
["> 6.00", "< 4.70", "5.00 to 6.00"]
